Cited source: PubChem BioAssay (NCI)

Test system: TK-10 renal
Experiment: NCI-60 one-dose screen, 48 h
Conditions: 10 µM unless noted
Compounds without any hit were thinned out: in the full panel of roughly 83,000, 20% have a hit. Calls of active or inactive are those of the source. How the source made its calls: active means growth percent below 10; inactive means the rest.
Reply using exactly one outcome from T = active, F = inactive

Solved entries (count: 3):
Lab log entry: `NC(=S)N/N=C(/c1cccs1)C1CC1` — outcome as called in the assay?
F

Lab log entry: CCN(CC)CCC(CNc1ccnc2cc(Cl)ccc12)c1ccc(O)cc1 (stereo not drawn) — outcome as called in the assay?
F

Lab log entry: `O=C(/C=C/c1ccccc1)n1c(-c2ccccc2)nc2ccccc21` — outcome as called in the assay?
F

---
Lab log entry: `CC(=O)[C@@]1(O)[C@H](C)C[C@H]2[C@@H]3C=C(C)C4=Cc5c(cnn5-c5ccccc5)C[C@]4(C)[C@H]3[C@@H](O)C[C@@]21C` — outcome as called in the assay?
F

Lab log entry: CC1=C(C(=O)Nc2ccc(F)cc2)C(c2ccccc2)C2=C(CC(C)(C)CC2=O)N1 (stereo not drawn) — outcome as called in the assay?
F

---

Tested on: HCT-15 colon
Assay: NCI-60 one-dose screen, 48 h (100 = growth as untreated, 0 = no growth, -100 = all killed)
Details: 10 µM unless noted
The panel holds about 83,000 compounds, 20% with a hit somewhere; the sample as a whole holds those more often.
In plain terms, low growth, meaning strictly below 80%, gives criterion met, and everything else gives criterion not met.

Solved entries (count: 4):
Item `CCOCC(O)(c1ccc(Cl)cc1)c1ccc(Cl)cc1` : growth beneath 80%, strictly?
criterion not met

Item `O=C(NO)c1ccc(NCc2csc3ccccc23)cc1` : growth beneath 80%, strictly?
criterion met

Item `CC(C)OC(=O)c1ccc([N+](=O)[O-])cc1` : growth beneath 80%, strictly?
criterion not met

Item COC1=CC(c2ccc[nH]2)=N/C1=C\c1[nH]c(C)c(C(=O)CCCCCCCCC(=O)O[C@H]2CC[C@H]3C4CCc5cc(O)ccc5C4CC[C@]23C)c1C (stereo not given in full) : growth beneath 80%, strictly?
criterion met

---
Item `COc1cccc2nc(Nc3cccc(NC(=O)c4cc(N5CCOCC5)cc(C(F)(F)F)c4)c3)ccc12` : growth beneath 80%, strictly?
criterion met

Item `COc1cc2nccc(Oc3ccc(NC(=O)C4(C(=O)Nc5c(F)cc(F)cc5F)CC4)cc3)c2cc1Oc1ccc(N)cn1` : growth beneath 80%, strictly?
criterion met

Item `Oc1ccc(-c2cnc(-c3ccccc3)[nH]2)c(O)c1` : growth beneath 80%, strictly?
criterion not met

Item `N=c1n(Cc2ccccc2)c(N)cc(=O)n1Cc1ccccc1` : growth beneath 80%, strictly?
criterion met

Item `O=C1OC(c2ccc(-c3ccccc3)cc2)=C/C1=C/c1c(Cl)cccc1Cl` : growth beneath 80%, strictly?
criterion not met

Item `CC(=O)Nc1ccc(Cl)cc1Cl` : growth beneath 80%, strictly?
criterion not met

---

Tested on: T-47D breast
Assay: NCI-60 one-dose screen, 48 h (100 = growth as untreated, 0 = no growth, -100 = all killed)
Conditions: 10 µM unless noted
The panel holds about 83,000 compounds, 20% with a hit somewhere; the sample as a whole holds those more often. The source made the active and inactive calls. How the source made its calls: active means growth percent below 10; inactive means the rest.
Give measured growth for each item. Keep answers brief.

For orientation, consider the following solved cases.
Fill in: growth on T-47D breast, entry `CCN(C(=O)Nc1cccc2ccccc12)c1ccccc1`
88.1% (inactive)

Fill in: growth on T-47D breast, entry `C#CCNC(=S)N/N=C(\C)c1ccccn1`
24.1% (inactive)

Fill in: growth on T-47D breast, entry `CC(=O)c1ccc(Nc2nc(Cl)nc(Oc3c(Cl)cccc3Cl)n2)cc1`
79.8% (inactive)

Fill in: growth on T-47D breast, entry `COc1ccc(C2=Nn3c(nnc3-c3ccc(Cl)cc3N)SC2)cc1`
88.1% (inactive)

Report growth for each item below.
1. Cc1c(O)c(=O)n(-c2ccccc2)n1C
2. F
3. CN(C)c1ccc(/C=C(\C#N)c2nc3ccccc3n2C)cc1
4. CCCCCCCCCCCCCCCCS(=O)(=O)Nc1cc(C(=O)NN)cc(C(=O)NN)c1

["99.5% (inactive)", "18.2% [6.87 mM] (inactive)", "40.2% (inactive)", "42% (inactive)"]

Report growth for each item below.
1. COc1cc(CN2CCO[C@H](COc3cccc(F)c3)C2)ccc1Cl
2. Cc1ccc(NC(=O)c2nc(S(C)(=O)=O)oc2-c2ccc(F)cc2)cc1Nc1ccc2ncn(C)c(=O)c2c1
3. CC1CN(CCCOC(=O)Nc2ccc(Cl)cc2)CCN1C(C)(C)C (configuration not stated)
4. CC1=C(C(=O)Nc2ccc(F)cc2)C(c2ccc(Cl)cc2)C2=C(CC(C)(C)CC2=O)N1 (configuration not stated)
5. CC1C2CCC(C2)C1COCCOCCO (configuration not stated)

28.2% (inactive)
-9.98% (active)
90% (inactive)
82.6% (inactive)
98.7% (inactive)

---

System: PC-3 prostate
Assay: NCI-60 one-dose screen, 48 h (100 = growth as untreated, 0 = no growth, -100 = all killed)
Conditions: 10 µM unless noted
Compounds without any hit were thinned out: in the full panel of roughly 83,000, 20% have a hit.
In plain terms, low growth, meaning strictly below 70%, gives Y, and everything else gives N.

Solved entries (count: 3):
Item `Cc1cc(C)c([O-])c(CN(C)CCN(C)Cc2cc(C)cc(C)c2[O-])c1.O=C([O-])c1cccc(C(=O)[O-])n1.[Ti+4]` : growth beneath 70%, strictly?
Y

Item `COS(=O)(=O)CCN(CCOS(C)(=O)=O)S(C)(=O)=O` : growth beneath 70%, strictly?
N

Item `Cc1ccc2cc3c(NC(=O)c4cccnc4)nn(C)c3nc2c1` : growth beneath 70%, strictly?
Y

---
Item `CSC(=S)N/N=C(\C)c1ccccn1` : growth beneath 70%, strictly?
Y

Item `Cc1c(C)c(C)c([N+](=O)[O-])c([N+](=O)[O-])c1C` : growth beneath 70%, strictly?
N

---

Give measured growth for each item. Keep answers brief.
Test system: HT29 colon
Test: NCI-60 one-dose screen, 48 h (100 = growth as untreated, 0 = no growth, -100 = all killed)
Settings: 10 µM unless noted
About 83,000 compounds went through this panel and 20% of them were active in at least one assay; those are over-represented in the sample as a whole. The source made the active and inactive calls. How the source made its calls: active means growth percent below 10; inactive means the rest.

Consider the compound `COc1ccc2cc(-c3nc(C)c(C(C)=O)c(-c4ccc(C)cc4)n3)ccc2c1` . State its measured growth.
82.4% (inactive)

Report growth for each item below.
1. O=[N+]([O-])c1cccc([I+]c2ccccc2)c1
2. CSC(=S)N/N=C(\C)c1ccccn1

["27.3% (inactive)", "25.9% (inactive)"]

Report growth for each item below.
1. CC1(C)CC[C@]2(C(=O)N3CCNCC3)CC[C@]3(C)C(=CC[C@@H]4[C@@]5(C)CCC(=O)C(C)(C)[C@@H]5CC[C@]43C)[C@@H]2C1
2. CC(=O)c1c(C)nc(-c2cc(C)cc(Cl)c2)nc1-c1cccc(Oc2ccccc2)c1

1. 107% (inactive)
2. 39.5% (inactive)

---

Give measured growth for each item. Keep answers brief.
Tested on: 786-0 renal
Test: NCI-60 one-dose screen, 48 h (100 = growth as untreated, 0 = no growth, -100 = all killed)
Conditions: 10 µM unless noted
This is part of a sample that, as a whole, favours compounds with a hit. Of some 83,000 tested, about 20% had one in any assay.
Numbers only, in %.

For orientation, consider the following solved cases.
Consider the compound N#Cc1c(NN)n(C2OC(CO)C(O)C2O)c2ncnc(N)c12 (stereo not given) . State its measured growth.
26.1

Consider the compound `Nc1nc(N)c2cc(CNc3ccc(Cl)c(Cl)c3)ccc2n1` . State its measured growth.
9.65

Consider the compound `CN(C)c1ccc(C(c2ccccc2)c2ccc(N(C)C)cc2)cc1` . State its measured growth.
97.5

Consider the compound `C#CC[C@@H]1C[C@]2(C)[C@H]3CC=C4[C@H]5[C@@H](C)[C@H](C)CC[C@]5(C(=O)NCCCN5CCN(CCCN)CC5)CC[C@@]4(C)[C@]3(C)CC[C@H]2C(C)(C)[C@H]1OC(C)=O` . State its measured growth.
-97

Consider the compound `O=C1/C(=C\c2cccn2Cc2ccc(Cl)cc2)c2ccccc2N1c1c(Cl)cccc1Cl` . State its measured growth.
81.7

Consider the compound `O=c1[nH]c2ccccc2n2cc3cccnc3c12` . State its measured growth.
71.1

Report growth for each item below.
1. CCCCc1n(Cc2ccc3ccccc3n2)cc[n+]1Cc1ccc2ccccc2n1
2. CCOP(=O)(O)OP(=O)(O)OCC
3. COc1ccc(/C(=C\c2ccc3c(c2)OCO3)C(=O)Nc2nc3ccc(F)cc3s2)cc1OC
4. O=C(NCC(c1ccsc1)N1CCCCCC1)c1ccc(C(F)(F)F)cc1 (stereo not given)

1: 56.9; 2: 99.4; 3: 92.1; 4: 96.9
